Values were extracted from the supplement of paper PMC11061612.

I'd be grateful if you could share measured Bliss excess for these entries.
Tested on: OSC-20 (Oral Cavity Carcinoma)
Experiment: Bliss excess, mean over the matrix (fraction); higher = more synergy
Please give the numeric answer without any surrounding text.

The compound NC1(C(=O)N[C@@H](CCO)c2ccc(Cl)cc2)CCN(c2ncnc3[nH]ccc23)CC1 [Capivasertib] + COc1nnc2ccc(N3CCC(c4ccc(OCCN5CCN(C)C(=O)[C@H]5C)cc4)CC3)nn12 [AZD5153] (first compound max 10 µM, 7x7, partner max 1 µM) showed Bliss excess equal to 0.0093

Just so you know, measured Bliss excess for CN(C)CCCOc1ccc(-c2ccc3ncc4c(c3c2)n(C2CCOCC2)c(=O)n4C)cn1 [AZD0156] + O=C(c1cc(Cc2n[nH]c(=O)c3ccccc23)ccc1F)N1CCN(C(=O)C2CC2)CC1 [Olaparib] (first compound max 3 µM, partner max 3 µM) came out at 0.0433

GET /value?item= CC(=O)c1c(C)c2cnc(Nc3ccc(N4CCNCC4)cn3)nc2n(C2CCCC2)c1=O [Palbociclib] + Cc1c2c(nn1C)CSCc1cc(n(C)n1)CSc1cc(c3ccccc3c1)OCCCc1c(C(=O)O)n(C)c3c-2c(Cl)ccc13 [AZD5991] (first compound max 10 µM, 7x7, partner max 1 µM) &field=Bliss excess returns -0.0337

---

Test system: BT-549 (Breast Carcinoma)
Assay: Bliss excess, mean over the matrix (fraction); higher = more synergy
Kindly state Bliss excess for each of the entries shown.
Note: the reply should be a number with no unit written.

Looking up CN(C)CCCOc1ccc(-c2ccc3ncc4c(c3c2)n(C2CCOCC2)c(=O)n4C)cn1 [AZD0156] + C=CCn1c(=O)c2cnc(Nc3ccc(N4CCN(C)CC4)cc3)nc2n1-c1cccc(C(C)(C)O)n1 [AZD1775] (first compound max 1 µM, partner max 1 µM) , I see its Bliss excess listed as -0.0986

The recorded Bliss excess for entry CN(C)CCCOc1ccc(-c2ccc3ncc4c(c3c2)n(C2CCOCC2)c(=O)n4C)cn1 [AZD0156] + O=C(c1cc(Cc2n[nH]c(=O)c3ccccc23)ccc1F)N1CCN(C(=O)C2CC2)CC1 [Olaparib] (first compound max 3 µM, partner max 3 µM) equals -0.0436

Form field Bliss excess, entry O=C(c1cc(Cc2n[nH]c(=O)c3ccccc23)ccc1F)N1CCN(C(=O)C2CC2)CC1 [Olaparib] + COc1nnc2ccc(N3CCC(c4ccc(OCCN5CCN(C)C(=O)[C@H]5C)cc4)CC3)nn12 [AZD5153] (first compound max 10 µM, 7x7, partner max 1 µM) : -0.0697

The molecule listed as Cc1c2c(nn1C)CSCc1cc(n(C)n1)CSc1cc(c3ccccc3c1)OCCCc1c(C(=O)O)n(C)c3c-2c(Cl)ccc13 [AZD5991] + Cc1cc2ncnn2cc1Nc1ncc2c(n1)n(C1CCOCC1)c(=O)n2C [AZD7648] (first compound max 1 µM, 7x7, partner max 10 µM) shows Bliss excess equal to -0.0523

---

System: LU-65 (Non-Small Cell Lung Carcinoma)
Assay: combination Emax (second highest fraction inhibited in the dose matrix, 72 h); higher = more inhibition; extreme values may be limits of the assay
Please provide measured combination Emax for the entries that follow.
The answer should be a number; do not append a unit.

// Cc1cc2ncnn2cc1Nc1ncc2c(n1)n(C1CCOCC1)c(=O)n2C [AZD7648] + C[C@@H]1COCCN1C2=NC(=NC(=C2)C3(CC3)[S@](=N)(=O)C)C4=C5C=CNC5=NC=C4 [AZD6738] (first compound max 10 µM, 7x7, partner max 10 µM) : combination Emax value = 0.656

get_value(item= O=C(c1cc(Cc2n[nH]c(=O)c3ccccc23)ccc1F)N1CCN(C(=O)C2CC2)CC1 [Olaparib] + Cc1c2c(nn1C)CSCc1cc(n(C)n1)CSc1cc(c3ccccc3c1)OCCCc1c(C(=O)O)n(C)c3c-2c(Cl)ccc13 [AZD5991] (first compound max 10 µM, 7x7, partner max 1 µM) , readout=combination Emax) returns 0.2

Sample NC1(C(=O)N[C@@H](CCO)c2ccc(Cl)cc2)CCN(c2ncnc3[nH]ccc23)CC1 [Capivasertib] + CC(=O)c1c(C)c2cnc(Nc3ccc(N4CCNCC4)cn3)nc2n(C2CCCC2)c1=O [Palbociclib] (first compound max 10 µM, 7x7, partner max 10 µM) ; combination Emax observed: 0.448

Record summary for C=CCn1c(=O)c2cnc(Nc3ccc(N4CCN(C)CC4)cc3)nc2n1-c1cccc(C(C)(C)O)n1 [AZD1775] + C[C@@H]1COCCN1C2=NC(=NC(=C2)C3(CC3)[S@](=N)(=O)C)C4=C5C=CNC5=NC=C4 [AZD6738] (first compound max 1 µM, partner max 10 µM) : reported combination Emax = 0.884
